These measurements were taken from PubChem BioAssay AID248.

system: L1210 leukemia ip in BDF1 mice, survival T/C; experiment: NCI In Vivo Anticancer Drug Screen. Data for tumor model L1210 Leukemia (intraperitoneal) in B6D2F1 (BDF1) mice; conditions: endpoint: mean survival time; dose: 50.0 mg/kg/injection; schedule: Q04DX003 (ip); vehicle: Klucel (hydroxypropylcellulose) (HPC); higher = longer survival
Inconclusive results and toxic doses are left out.
For each record, write down the corresponding T/C.

Record excerpt, results attached:
COC(=O)C1CC(=O)c2c(O)ccc(O)c2C1 (centres undefined) :: 98 % of control
CC(C)(NC(=O)c1ccccc1)C(=O)O :: 106 % of control

// for each compound below, give its T/C
1. CCOC(=O)c1[nH]c(COC(C)=O)c(CCC(=O)O)c1C
2. COc1cc(CNC(=O)CCN2CC2)ccc1O

Reply |
["95 % of control", "109 % of control"]
